System: HT
testSummary: cells
Assay type: functional, cell-based, Homo sapiens
measurementConditions: Homo sapiens, HT
Description: SANGER: Inhibition of human HT cell growth in a cell viability assay.
experimentalEndpoint: IC50 (nM)
The figure you give is taken to be in nM; do not add the unit.

| smiles | IC50 [nM] |
| --- | --- |
| NC(=O)Nc1cc(-c2cccc(F)c2)sc1C(=O)N[C@H]1CCCNC1 | 1870 |

Would you kindly look at the next entry?
According to the records, this compound Nc1ccccc1NC(=O)c1ccc(CNC(=O)OCc2cccnc2)cc1 displays IC50 of 2100

====

Let's look at some compounds and their measured IC50.
Test system: M059J;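 further: growth inhibition of M059J cells, read out with a cell viability assay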
testSummary: cells
Type: functional, cell-based
measurementConditions: Homo sapiens
Description: SANGER: Inhibition of human M059J cell growth in a cell viability assay.

Some entries whose results are on file:
| smiles | IC50 |
| --- | --- |
| O=C1NC(=O)c2c1c(-c1ccccc1Cl)cc1[nH]c3ccc(O)cc3c21 | > 2000 nM |
| CC1(C)CCC(c2ccc(Cl)cc2)=C(CN2CCN(c3ccc(C(=O)NS(=O)(=O)c4ccc(N[C@H](CCN5CCOCC5)CSc5ccccc5)c(S(=O)(=O)C(F)(F)F)c4)cc3)CC2)C1 | > 2000 nM |
| CC1=C(/C=C/C(C)=C/C=C/C(C)=C/C(=O)O)C(C)(C)CCC1 | > 10000 nM |

According to the records, this compound CN(C)CCOc1ccc(-c2nc(-c3ccncc3)c(-c3ccc4c(c3)CC/C4=N\O)[nH]2)cc1 displays IC50 of > 5000 nM

According to the records, this compound COC(=O)[C@H](CCSC)NC(=O)c1ccc(NC[C@@H](N)CS)cc1-c1ccccc1 displays IC50 of > 1020 nM
